- Tgt: T1, eIF4E (residues 69–248) II-AA, purified (Drosophila melanogaster, UniProt P48598-2 69-248, Ile96 to Ala (II-AA) | Ile112 to Ala (II-AA))
- T1 construct: eIF4E, Drosophila melanogaster, residues 69–248; also called eIF4E (II-AA); not shown: His6, N-terminal, cleaved
- T1 sequence (looked up): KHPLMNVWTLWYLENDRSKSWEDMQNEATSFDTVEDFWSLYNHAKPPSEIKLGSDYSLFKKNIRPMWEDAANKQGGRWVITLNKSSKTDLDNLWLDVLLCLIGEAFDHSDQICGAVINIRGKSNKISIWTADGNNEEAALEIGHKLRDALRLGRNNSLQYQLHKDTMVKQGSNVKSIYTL
- Assay Info: ITC; VP-ITC, 20 °C; eIF4E (69–248, WT or mutant, 1–20 μM) in the cell, tenfold concentrated GB1-stabilized peptides titrated in; 20 mM Na-phosphate pH 7.0, 150 mM NaCl; one-site binding model
- Condition Info: both partners purified
Recorded Metric: dH (kcal/mol)
# output: bare number, implied unit kcal/mol

Below: 3 binders and their reported dH.
{"Binder": "CUP C+NC peptide fused C-terminally to GB1 (domain or fragment, Drosophila melanogaster, CUP, Drosophila melanogaster, canonical and non-canonical 4E-BMs; source: E. coli BL21 Star (DE3), purified (amylose, HRV3C cleavage, SEC); not shown: MBP, N-terminal, cleaved; GB1, C-terminal, kept) STGIHKPGSLRAPKAVRPTTAPVVSSKPVKSYTRSRLMDIRNGMFNALMHRSKESFVMPRIATCDDIELEGRLRRMNIWRTSDGTRFRTRSTTANLNMNNNNNNECMPAFFKNKNKPNLISDESIIQSQP", "dH / kcal/mol": -18.6}
{"Binder": "TKLIYERAFMKNLRGSPLSQTPPSNVPSCLLRGT (domain or fragment) [Thor C+NC peptide fused C-terminally to GB1]", "dH / kcal/mol": -7.6}
{"Binder": "eIF4G peptide (residues 578–650) fused C-terminally to GB1 (domain or fragment, Drosophila melanogaster, UniProt O61380 578-650, looked up, eIF4G, Drosophila melanogaster, residues 578–650 (methods and legends); source: E. coli BL21 Star (DE3), purified (amylose, TEV cleavage, anion exchange, SEC); not shown: MBP, N-terminal, cleaved; GB1, C-terminal, kept) PETTLNDKQDSTDLKVKVSAKISSIINYNEGQWSPNNPSGKKQYDREQLLQLREVKASRIQPEVKNVSILPQP", "dH / kcal/mol": -16.2}

In the following, a different binder is considered.
Give its dH value. Item: RYSKVDLLALRYEGKSRQRPQCSTRLELQTLGFWKI (domain or fragment) [4E-T C+NC peptide fused C-terminally to GB1]
-12.9
